Assay: qHTS Assay for Lipid Storage Modulators (AID 1519); further: on the % scale 0 is the no-effect control and ±100 the full control effect
Settings: Drosophila S3 cells, BODIPY lipid droplet/cell ratio, laser cytometry; at 57.5 µM (top of the series); cells loaded with oleic acid
Protocol: NIH Molecular Libraries Probe Production Centers Network [MLPCN] NIH Chemical Genomics Center [NCGC] Assay Submitter (PI): Beller, Mathias; Max-Planck-Institut fur Biophysikalische Chemie […] We dispensed 4 uL of cells at 1.25 x 10^6 cells/mL into LoBase Aurora COC 1,536-well plates (black walled, clear bottom) with a bottle-valve solenoid-based dispenser (Aurora) to obtain 5,000 cells/well. […] The ratio of the total intensity in PMT channel 1 over total intensity of channel 3 was also calculated. […]
Records with an inconclusive call do not appear.
Entries and their activity change, negative = inhibition values follow.
Just the number in %, nothing appended.

Recorded activity change, negative = inhibition, per entry:
>>> observed_result("O=C(Nc1ccccc1)N1CC[C@@]2(CCCNC2)C1")
-3.27
>>> observed_result("CC1OC(O[C@@H]2C(O)CC(O[C@@H]3C(O)C[C@@H](OC4CC[C@]5(C)[C@H](CC[C@H]6[C@@H]5CC[C@]5(C)C(C7=CC(=O)OC7)C(O)C[C@@]65O)C4)OC3C)OC2C)CC(O)C1O (stereo partly specified)")
10.1
>>> observed_result("NNCc1ccccc1")
14.8
>>> observed_result("CNC(=O)CSP(=S)(OC)OC")
4.16
>>> observed_result("COc1cc2c(cc1O)CCNC2C (stereo unspecified)")
6.98

I'd like to know its activity change, negative = inhibition. The compound in question is NC(N)=N/N=C\c1c(Cl)cccc1Cl
6.25

I'd like to know its activity change, negative = inhibition. The compound in question is CC(C)c1ccc2c(c1O)CCC1C3=C(CC[C@]21C)C(=O)OC3 (stereo partly specified)
1.46

I'd like to know its activity change, negative = inhibition. The compound in question is COC1=CC23CCCN2CCc2cc4c(cc2C3C1O)OCO4 (stereo unspecified)
15.3

I'd like to know its activity change, negative = inhibition. The compound in question is O=C1CCCC2[C@@H]3CCCN4CCC[C@@H](CN12)C34 (stereo partly specified)
4.15

I'd like to know its activity change, negative = inhibition. The compound in question is COC(=O)COc1cc(Cl)c(Cl)cc1Cl
2.27

I'd like to know its activity change, negative = inhibition. The compound in question is O=C(Oc1ccccc1)N1CCC2(CCCN(C(c3ccccc3)c3ccccc3)C2)CC1
6.26

----------
Molecular target: Ubiquitin carboxyl-terminal hydrolase 1 (Homo sapiens)
Experiment: Inhibitors of USP1/UAF1: Pilot qHTS (AID 504865); further: nearly all actives have a fitted effect of over 35% in size
Details: purified USP1/UAF1, Ub-rhodamine cleavage fluorescence; series mostly up to 114 µM
Inconclusive results are not listed. Activity calls are given as the source filed them. Calls come from the whole dose curve; as a rule, active = well fitted inhibition curve with a large enough effect; inconclusive = small, poorly fitted or top-dose-only effect; inactive = flat fitted curve, though single readings scatter.
Write down the outcome that applies. Available outcomes: active, inactive

Below, 5 compounds whose answers are already recorded.
>>> assigned_category("CC(C)c1cc2c(c(O)c1O)[C@]1(C(=O)O)CCCC(C)(C)C1CC2 (stereo not given in full)")
"inactive"
>>> assigned_category("CC1C(=O)OC2C(O)C34C5OC(=O)[C@@]3(OC3OC(=O)[C@H](O)[C@]34C(C(C)(C)C)C5O)[C@]12O (stereo not given in full)")
"inactive"
>>> assigned_category("CC(=O)CC1CCCCN1 (stereo not given)")
"inactive"
>>> assigned_category("CN1C2CC(OC(=O)C(CO)c3ccccc3)C[C@@H]1[C@H]1OC21 (stereo not given in full)")
"inactive"
>>> assigned_category("CN1CCc2cc3c(cc2C1O)OCO3 (stereo not given)")
"inactive"

For C[C@@]12CCC(=O)C[C@@H]1CC[C@@H]1[C@@H]2CC[C@]2(C)C(=O)CC[C@@H]12 , what call appears in the results of this test?
inactive

For COC1=C[C@H]2C3=C([C@H]2C1=O)[C@H](NC(C)=O)CCc1cc(OC)c(OC)c(OC)c13 , what call appears in the results of this test?
inactive

For CCOC(=O)C1C(C=C(C)C)C1(C)C (stereo not given) , what call appears in the results of this test?
inactive

For CNC(C)[C@@H](O)c1ccc(O)cc1 (stereo not given in full) , what call appears in the results of this test?
inactive

For CC(=O)OC1C2C(OC(=O)Cc3ccccc3)C(C)CC2(OC(C)=O)C(=O)/C(C)=C/C2C(CC[C@@]13CO3)C2(C)C (stereo not given in full) , what call appears in the results of this test?
inactive

For CNC[C@H](O)c1ccc(O)cc1 , what call appears in the results of this test?
inactive

For COc1cc2c(cc1O)[C@H]1Cc3ccc(OC)c(O)c3CN1CC2 , what call appears in the results of this test?
active

For CC(C)(O)[C@@H]1C2OC(=O)[C@@H]1[C@]1(O)C[C@H]3O[C@]34C(=O)O[C@H]2[C@]14C , what call appears in the results of this test?
inactive

----------
Assay: Cell Viability - LYMP2-023 (AID 975);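 further: cells exposed to compound for 24 hours at 37 °C; nearly all actives have a fitted effect of over 55% in size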
Conditions: LYMP2-023 lymphoblastoid cell viability; series mostly up to 92.2 µM
Records with an inconclusive call do not appear. Active and inactive are the calls of the source. The call rests on the fitted dose curve; in most records, active means well fitted cell-killing curve with a large enough effect; inconclusive means small, poorly fitted or top-dose-only effect; inactive means flat fitted curve, though single readings scatter.
Write down the outcome that applies. Available outcomes: active, inactive

Below, 2 compounds whose answers are already recorded.
>>> assigned_category("O=C(O)COc1ccc(Cl)cc1Cl")
"inactive"
>>> assigned_category("Brc1ccc(Oc2cc(Br)c(Br)cc2Br)c(Br)c1")
"inactive"

For NC(=S)Nc1ccccc1 , what call appears in the results of this test?
inactive

For Brc1ccccc1 , what call appears in the results of this test?
inactive

For Nc1c(Cl)c(Cl)nc(C(=O)O)c1Cl , what call appears in the results of this test?
inactive

For C[C@H]1CCCC(=O)CCC/C=C/c2cc(O)cc(O)c2C(=O)O1 , what call appears in the results of this test?
inactive

For OCC1CO1 (stereo unspecified) , what call appears in the results of this test?
inactive

For O=[N+]([O-])c1ccc(Cl)c(Cl)c1 , what call appears in the results of this test?
inactive

For CC(Cl)Cl , what call appears in the results of this test?
inactive

For C=CC(=O)OCC , what call appears in the results of this test?
inactive

For ClC1=C(Cl)C2(Cl)C3C4CC(C5OC45)C3C1(Cl)C2(Cl)Cl (stereo unspecified) , what call appears in the results of this test?
active

For C=CC(C)=O , what call appears in the results of this test?
inactive

For [O-][Br+2]([O-])O , what call appears in the results of this test?
inactive

For Cc1ccc([N+](=O)[O-])cc1C , what call appears in the results of this test?
inactive

For C[N+](C)(C)Cc1ccccc1 , what call appears in the results of this test?
inactive

For O=[N+]([O-])c1cccc2ccccc12 , what call appears in the results of this test?
inactive

----------
Assay: Cell Viability - LYMP2-021 (AID 974);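 further: compound exposure lasts 24 hours at 37 °C; nearly all actives have a fitted effect of over 55% in size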
Details: LYMP2-021 lymphoblastoid cells viability; series mostly up to 92.2 µM
Records with an inconclusive call do not appear. Activity calls are given as the source filed them. Calls follow the shape of the dose curve; as a rule, active = well fitted cell-killing curve with a large enough effect; inconclusive = small, poorly fitted or top-dose-only effect; inactive = flat fitted curve, though single readings scatter.
Write down the outcome that applies. Available outcomes: True = active, False = inactive

Below, 5 compounds whose answers are already recorded.
>>> assigned_category("CCOP(=S)(OCC)SCSC(C)(C)C")
"False"
>>> assigned_category("Clc1nc(Cl)nc(Cl)n1")
"False"
>>> assigned_category("O=C(O)COc1ccc(Cl)cc1Cl")
"False"
>>> assigned_category("ClC(Cl)=C(Cl)Cl")
"False"
>>> assigned_category("CC(=O)[O-].CC(=O)[O-].O.O.O.[Pb+2]")
"False"

Now, please, on to the next compound.
For CCOCN(C(=O)CCl)c1c(C)cccc1CC , what call appears in the results of this test?
True

----------
System: C2A
Assay: qHTS profiling for inhibitors of Plasmodium falciparum proliferation (AID 504749); further: nearly all actives have a fitted effect of over 60% in size
Details: P. falciparum in erythrocytes, SYBR Green DNA, 72 h; series mostly up to 28.7 µM
Results filed as inconclusive are left out. The source made the active and inactive calls. Calls follow the shape of the dose curve; as a rule, active = well fitted inhibition curve with a large enough effect; inconclusive = small, poorly fitted or top-dose-only effect; inactive = flat fitted curve, though single readings scatter.
Write down the outcome that applies. Available outcomes: active, inactive

Below, 5 molecules whose answers are already recorded.
>>> assigned_category("O=[As]O[As]=O (centres undefined)")
"active"
>>> assigned_category("C[C@H]1CN(C2CCC(C#N)(c3ccc(F)cc3)CC2)CC[C@@]1(C(=O)O)c1ccccc1 (some centres undefined)")
"inactive"
>>> assigned_category("Clc1ccc([C@@H](OCCN2CCCCC2)c2ccccc2)cc1")
"inactive"
>>> assigned_category("CN(C)C(=O)Oc1cc(OC(=O)N(C)C)cc([C@@H](O)CNC(C)(C)C)c1")
"inactive"
>>> assigned_category("COc1cc2c(cc1OC)[C@@]13CCN4CC5=CCOC6CC(=O)N2C1[C@H]6[C@@H]5C[C@@H]43 (some centres undefined)")
"inactive"

For C[C@@]12CC[C@H]3[C@@H](CC[C@@H]4C[C@H]5S[C@H]5C[C@]43C)[C@H]1CC[C@H]2O , what call appears in the results of this test?
inactive

For Oc1ccc2c3c1O[C@H]1[C@@H](O)CC[C@@]4(O)C(C2)N(CC2CCC2)CCC314 (some centres undefined) , what call appears in the results of this test?
inactive

For CCCC[N+]1(C)C2CC(OC(=O)C(CO)c3ccccc3)CC1C1OC12 (centres undefined) , what call appears in the results of this test?
inactive

For CN[C@@H](C)[C@H]1CC[C@@H](N)[C@@H](O[C@@H]2[C@@H](O)[C@@H](O[C@H]3OC[C@@](C)(O)[C@@H](NC)[C@@H]3O)[C@H](N)C[C@@H]2N)O1 (tested in a mixture with another compound) , what call appears in the results of this test?
inactive
